Provenance of the data: ChEMBL document CHEMBL5230114

Listing of recorded EC50 by entry.
target: Cystic fibrosis transmembrane conductance regulator (Homo sapiens, UniProt P13569, F508DEL); experiment: Potentiation of CFTR F508del mutant activity (unknown origin)
Sequence (P13569 as listed by the source): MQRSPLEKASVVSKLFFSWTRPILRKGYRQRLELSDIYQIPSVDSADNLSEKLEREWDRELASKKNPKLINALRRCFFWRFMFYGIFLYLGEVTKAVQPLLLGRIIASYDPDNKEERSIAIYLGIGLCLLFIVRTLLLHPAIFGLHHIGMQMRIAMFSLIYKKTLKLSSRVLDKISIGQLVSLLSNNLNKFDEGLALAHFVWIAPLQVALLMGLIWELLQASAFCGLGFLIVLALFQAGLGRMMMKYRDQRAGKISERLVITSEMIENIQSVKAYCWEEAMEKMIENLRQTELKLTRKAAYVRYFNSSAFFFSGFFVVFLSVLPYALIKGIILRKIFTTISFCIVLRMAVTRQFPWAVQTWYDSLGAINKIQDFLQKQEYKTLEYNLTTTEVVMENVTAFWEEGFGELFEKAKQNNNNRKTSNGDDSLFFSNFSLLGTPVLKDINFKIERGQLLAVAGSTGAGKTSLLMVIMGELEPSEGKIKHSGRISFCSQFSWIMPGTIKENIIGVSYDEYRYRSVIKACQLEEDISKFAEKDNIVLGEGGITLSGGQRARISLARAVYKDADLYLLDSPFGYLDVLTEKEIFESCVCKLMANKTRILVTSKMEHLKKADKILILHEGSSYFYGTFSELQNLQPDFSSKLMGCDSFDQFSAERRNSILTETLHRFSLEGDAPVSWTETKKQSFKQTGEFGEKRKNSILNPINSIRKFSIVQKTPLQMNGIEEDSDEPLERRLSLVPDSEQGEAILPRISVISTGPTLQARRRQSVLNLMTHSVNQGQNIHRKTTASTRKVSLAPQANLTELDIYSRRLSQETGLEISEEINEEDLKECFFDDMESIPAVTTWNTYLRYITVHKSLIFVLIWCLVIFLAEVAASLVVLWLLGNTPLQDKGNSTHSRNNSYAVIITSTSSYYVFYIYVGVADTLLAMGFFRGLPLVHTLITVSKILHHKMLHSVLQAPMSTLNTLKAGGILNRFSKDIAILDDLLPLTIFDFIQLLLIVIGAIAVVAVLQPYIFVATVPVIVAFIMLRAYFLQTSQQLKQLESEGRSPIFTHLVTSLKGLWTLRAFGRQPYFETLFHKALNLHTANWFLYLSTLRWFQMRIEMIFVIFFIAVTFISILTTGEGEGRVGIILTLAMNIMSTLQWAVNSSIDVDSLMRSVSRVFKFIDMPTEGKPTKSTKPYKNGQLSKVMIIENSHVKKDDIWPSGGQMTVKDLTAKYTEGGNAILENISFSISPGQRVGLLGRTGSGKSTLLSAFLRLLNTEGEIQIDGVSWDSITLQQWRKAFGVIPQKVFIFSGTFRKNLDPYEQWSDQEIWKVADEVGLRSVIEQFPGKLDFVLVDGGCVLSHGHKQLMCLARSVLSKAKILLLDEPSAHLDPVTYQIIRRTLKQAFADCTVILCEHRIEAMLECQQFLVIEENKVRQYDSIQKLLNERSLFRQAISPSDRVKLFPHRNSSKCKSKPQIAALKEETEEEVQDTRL
attribute_measured: EC50 (µM)

{"item_smiles": "CN(C(=O)Cc1c[nH]c2ccccc12)[C@H](C(=O)Nc1ccc(F)cc1)c1ccccc1", "value_reported": 0.09}
{"item_smiles": "CN(C(=O)Cc1c[nH]c2ccccc12)[C@H](C(=O)Nc1ccc(-n2cc(CCCF)nn2)cc1)c1ccccc1", "value_reported": 1.1}

* * *

target: Cystic fibrosis transmembrane conductance regulator (Homo sapiens, UniProt P13569, W1282X); test: Potentiation of CFTR W1282X mutant (unknown origin) expressed in rat FRT cells
Recorded measurements of EC50, one per entry

{"item_smiles": "CCc1ccc(NS(=O)(=O)c2cn(Cc3ccccc3C#N)c3ncccc23)cc1", "EC50": "700 nM"}
{"item_smiles": "CCc1ccc(NS(=O)(=O)c2cn(Cc3ccccn3)c3ncccc23)cc1", "EC50": "600 nM"}
{"item_smiles": "CCCCCn1cc(S(=O)(=O)Nc2ccc(CC)cc2)c2cccnc21", "EC50": "1000 nM"}

* * *

molecular target: Cystic fibrosis transmembrane conductance regulator (Rattus norvegicus, UniProt P34158, F508DEL); assay: Potentiation of CFTR F508del mutant in rat FRT cells assessed as increase in iodide influx in presence of forskolin; format: cell-based
Sequence (P34158 whole entry F508del, looked up): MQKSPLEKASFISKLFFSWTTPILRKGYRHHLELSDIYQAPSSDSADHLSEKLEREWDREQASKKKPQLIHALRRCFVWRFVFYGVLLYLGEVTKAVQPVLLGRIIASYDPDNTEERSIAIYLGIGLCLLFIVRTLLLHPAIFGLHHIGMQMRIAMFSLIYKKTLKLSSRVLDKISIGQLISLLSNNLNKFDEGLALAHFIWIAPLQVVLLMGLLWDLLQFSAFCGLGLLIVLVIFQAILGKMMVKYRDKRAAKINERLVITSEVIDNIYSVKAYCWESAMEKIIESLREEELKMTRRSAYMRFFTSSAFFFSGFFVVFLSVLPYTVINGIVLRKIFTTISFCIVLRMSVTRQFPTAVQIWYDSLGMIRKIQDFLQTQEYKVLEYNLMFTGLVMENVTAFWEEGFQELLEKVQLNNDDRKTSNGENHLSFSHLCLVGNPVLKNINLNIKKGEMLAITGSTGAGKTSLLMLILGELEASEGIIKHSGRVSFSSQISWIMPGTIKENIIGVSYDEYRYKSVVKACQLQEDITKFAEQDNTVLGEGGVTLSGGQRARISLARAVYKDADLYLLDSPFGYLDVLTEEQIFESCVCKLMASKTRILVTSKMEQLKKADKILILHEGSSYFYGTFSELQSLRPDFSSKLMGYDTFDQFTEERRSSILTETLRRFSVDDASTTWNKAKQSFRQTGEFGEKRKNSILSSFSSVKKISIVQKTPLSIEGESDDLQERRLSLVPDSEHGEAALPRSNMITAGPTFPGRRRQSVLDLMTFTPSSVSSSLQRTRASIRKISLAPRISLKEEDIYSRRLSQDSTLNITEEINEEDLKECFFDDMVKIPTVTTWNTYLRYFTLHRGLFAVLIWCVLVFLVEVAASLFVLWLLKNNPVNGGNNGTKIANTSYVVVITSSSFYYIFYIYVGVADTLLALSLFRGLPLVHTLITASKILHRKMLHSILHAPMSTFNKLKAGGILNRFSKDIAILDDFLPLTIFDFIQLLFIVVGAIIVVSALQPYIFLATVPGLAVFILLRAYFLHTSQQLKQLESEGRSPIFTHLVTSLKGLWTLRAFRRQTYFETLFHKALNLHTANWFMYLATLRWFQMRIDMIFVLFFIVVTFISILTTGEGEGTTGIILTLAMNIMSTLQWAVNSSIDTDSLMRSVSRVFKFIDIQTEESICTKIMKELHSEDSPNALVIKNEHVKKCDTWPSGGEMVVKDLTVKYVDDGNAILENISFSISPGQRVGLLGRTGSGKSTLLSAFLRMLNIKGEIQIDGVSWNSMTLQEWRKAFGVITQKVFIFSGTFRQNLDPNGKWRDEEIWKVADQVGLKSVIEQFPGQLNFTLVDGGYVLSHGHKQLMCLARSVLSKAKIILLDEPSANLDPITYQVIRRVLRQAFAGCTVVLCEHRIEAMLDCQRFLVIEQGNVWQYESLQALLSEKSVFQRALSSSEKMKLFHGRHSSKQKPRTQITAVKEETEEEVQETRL

{"molecule": "CC(C)c1ccc(NC(=O)C(c2ccccc2)N(C)C(=O)Cc2c[nH]c3ccccc23)cc1 (stereo unspecified)", "unit_abbrev": "nM", "EC50": 70}
